Experiment: Cytotoxicity activity against human HepG2 cells assessed by CellTiter-Glo luminescent cell viability assay.
Format: toxicity, cell-based
Design: assay stage confirmatory assay, source tissue liver
Conditions: HepG2 cells, read-out: IC50 relative
Counter-ions that a name gives are not always drawn. The source made the active and inactive calls. How the calls were made is not given here.
Could you please pick one outcome from this set? active, inactive

Example results:
Compound	Qualitative Label
Oc1cc(O)c2sc(Nc3ccc(F)cc3)nc2n1	active
C[C@H](O)CN1CCC(CNCc2cccc(Br)c2)CC1	active
CCN(C(=O)c1ccco1)c1nc2ccccc2s1	active
CC1CCN(S(=O)(=O)c2ccc(-c3nc(C#N)c(NCCCN(C)C)o3)cc2)CC1	active
CO[C@H]1/C=C\C=C(\C)C(=O)NC2=CC(=O)C(NCCN(C)C)=C(C[C@@H](C)C[C@H](OC)[C@H](O)[C@@H](C)/C=C(/C)[C@@H]1OC(N)=O)C2=O	active

Qu. Name the outcome recorded for CCS(=O)(=O)N1CCc2ccc(NC(=O)Nc3cccc(F)c3)cc21 in the assay.
Ans. active

Qu. Could you check what this test reported for CN1CCC[C@@H]1CCO[C@](C)(c1ccccc1)c1ccc(Cl)cc1 [CLEMASTINE FUMARATE] ?
Ans. active

Qu. Each compound tested received a call. Report the one for COc1cc(N2CCN(C)CC2)ccc1Nc1nccc(-c2cn(C)c3cnccc23)n1 .
Ans. active

Qu. What is the recorded call for this compound in the test? CN(c1ccccc1CNc1nc(Nc2ccc3c(c2)CC(=O)N3)ncc1C(F)(F)F)S(C)(=O)=O
Ans. active

Qu. Hi team, can someone confirm the assay call for CCc1cccc2c(C3CCNCC3)c[nH]c12 ?
Ans. active

Qu. Any idea what this test logged for OCCn1cc(-c2ccc3c(c2)CC/C3=N\O)c(-c2ccncc2)n1 ?
Ans. active
